molecular target: T1, human CD47 on cells (SHP-77 tumor cells, human red blood cells, CCRF-CEM cells, human CD47 CHO-K1 stable cell … (human, UniProt Q08722 19-323)); assay: flow cytometry on SHP-77 cells
T1 construct: whole, on cells; also called RBC
recordedMetric: EC50 (nM)
Kindly provide the numeric value in nM only, without the unit symbol.

108VH10.Mr / 108VL10.Me (antibody, V domains shown, 4D5-framework series; constant regions not restated for this series; also called VH10.Mr VL10.Me) VH: EVQLVESGGGLVQPGGSLRLSCAASGFTFSHHWIHWVRQAPGKGLEWVAMIDASDSETRLVDSVKGRFTISADTSKNTAYLQMNSLRAEDTAVYYCSRLGRYYFDYWGQGTLVTVSS VL: DIQMTQSPSSLSASVGDRVTITCRASQSISSYLNWYQQKPGKAPKLLIYGASSRYSGVPSRFSGSRSGTDFTLTISSLQPEDFATYYCGESYGHLYTFGQGTKVEIK    14.4

Give EC50 for the following binder: 108VH10.Mq / 108VL10.Me (antibody, V domains shown, 4D5-framework series; constant regions not restated for this series; also called VH10.Mq VL10.Me) VH: EVQLVESGGGLVQPGGSLRLSCAASGFTFSHHWIHWVRQAPGKGLEWVAMIDASDSETRLSDSVKGRFTISADTSKNTAYLQMNSLRAEDTAVYYCSRLGRYYFDYWGQGTLVTVSS VL: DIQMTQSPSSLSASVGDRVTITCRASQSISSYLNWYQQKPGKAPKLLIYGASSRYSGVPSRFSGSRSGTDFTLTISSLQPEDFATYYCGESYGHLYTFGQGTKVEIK 8

Tell me its EC50 given 108VH5.M21 / 108VL1.M5 (antibody, human IgG4 S228P, kappa, V domains shown, Full-length IgG4 (S228P), kappa; also called VH5.M21 VL1.M5) VH: EVQLVQSGAEVKKPGASVKVSCKASGYTFTHHWMHWVRQAPGQGLEWMGMIDASDFETRYAQKFQGRVTMTRDTSTSTVYMELSSLRSEDTAVYYCARLGRYYFDYWGQGTLVTVSS VL: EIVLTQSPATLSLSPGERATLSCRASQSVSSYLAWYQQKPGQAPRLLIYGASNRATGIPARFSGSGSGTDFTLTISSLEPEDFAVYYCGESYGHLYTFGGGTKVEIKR as the entry. 11.9

Given the binder 108VH10.Mp / 108VL10.Me (antibody, V domains shown, 4D5-framework series; constant regions not restated for this series; also called VH10.Mp VL10.Me) VH: EVQLVESGGGLVQPGGSLRLSCAASGFTFSHHWIHWVRQAPGKGLEWVAMIDASDSETRLVDSFKGRFTISADTSKNTAYLQMNSLRAEDTAVYYCSRLGRYYFDYWGQGTLVTVSS VL: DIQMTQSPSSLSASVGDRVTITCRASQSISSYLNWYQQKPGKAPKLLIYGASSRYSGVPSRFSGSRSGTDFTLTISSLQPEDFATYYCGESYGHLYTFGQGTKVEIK , write its reported EC50. 27.5

In one line, give reported EC50 of the entry 108VH5.M6 / 108VL1.M5 (antibody, human IgG4 S228P, kappa, V domains shown, Full-length IgG4 (S228P), kappa; also called VH5.M6 VL1.M5) VH: EVQLVQSGAEVKKPGASVKVSCKASGYTFTHHYMHWVRQAPGQGLEWMGMIDASDSETRLSQKFKDRVTMTRDTSTSTVYMELSSLRSEDTAVYYCARLGRYYFDYWGQGTLVTVSS VL: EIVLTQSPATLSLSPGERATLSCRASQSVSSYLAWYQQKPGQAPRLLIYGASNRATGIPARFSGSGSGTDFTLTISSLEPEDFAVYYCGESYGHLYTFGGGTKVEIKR . 25.1

Reference source: patent US20260132197A1
